- Procedure details: Cmax in Wistar rat brain at 750 mg/kg, po by LC-MS/MS analysis
- Type: ADME, organism-based
- Parameters: dose 750 mg/kg, route oral
Please provide measured Cmax for the entries that follow.
Numbers only, in ng/g.

# example entries with known answers
> print(dat)
                                   molecule  data.value
1  COc1ccc(-c2cc(=O)c3c(OC)cc(OC)cc3o2)cc1 [TRIMETHYLAPIGENIN]        1430
2  COc1cc(OC)c2c(=O)cc(-c3ccccc3)oc2c1 [CHRYSIN DIMETHYL ETHER]         960

Turning now to a further molecule:
Lookup: Could you share which Cmax value was measured for COc1cc(OC)c2c(=O)c(OC)c(-c3ccc(OC)c(OC)c3)oc2c1 ?
Found: 260
